molecular target: UniProt P49760
Sequence (P49760 whole entry): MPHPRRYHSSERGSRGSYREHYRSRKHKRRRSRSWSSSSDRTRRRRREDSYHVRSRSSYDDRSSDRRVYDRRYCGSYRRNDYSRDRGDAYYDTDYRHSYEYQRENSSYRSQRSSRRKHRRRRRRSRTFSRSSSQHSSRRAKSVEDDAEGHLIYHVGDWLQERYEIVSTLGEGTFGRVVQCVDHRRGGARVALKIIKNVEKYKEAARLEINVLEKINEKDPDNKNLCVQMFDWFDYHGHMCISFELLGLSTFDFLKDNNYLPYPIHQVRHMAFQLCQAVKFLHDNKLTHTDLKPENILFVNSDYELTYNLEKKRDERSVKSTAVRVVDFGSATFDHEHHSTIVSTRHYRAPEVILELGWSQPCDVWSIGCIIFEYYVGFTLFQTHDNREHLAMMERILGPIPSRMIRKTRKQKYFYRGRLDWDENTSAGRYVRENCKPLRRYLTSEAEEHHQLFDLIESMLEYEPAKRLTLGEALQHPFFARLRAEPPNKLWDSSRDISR
pIC50: −log10 of the molar value.
ASSAY_METRIC: pIC50

stdin: # query: pIC50 | item COc1nc(N[C@H]2CC[C@H](NS(=O)(=O)CC(C)C)CC2)nc2[nH]nc(N3CCOC[C@H]3C)c12 [compound 39] | system: UniProt P49760
stdout: ≤ 4.70

----------
molecular target: UniProtKB Q9NSY1; assay: biochemical; design: species or system HEK293/K-562/placenta mixed human extract; Kinobeads chemoproteomic competition binding, quantified by TMT LC-MS/MS, dose response up to 20 uM
Sequence (Q9NSY1 whole entry): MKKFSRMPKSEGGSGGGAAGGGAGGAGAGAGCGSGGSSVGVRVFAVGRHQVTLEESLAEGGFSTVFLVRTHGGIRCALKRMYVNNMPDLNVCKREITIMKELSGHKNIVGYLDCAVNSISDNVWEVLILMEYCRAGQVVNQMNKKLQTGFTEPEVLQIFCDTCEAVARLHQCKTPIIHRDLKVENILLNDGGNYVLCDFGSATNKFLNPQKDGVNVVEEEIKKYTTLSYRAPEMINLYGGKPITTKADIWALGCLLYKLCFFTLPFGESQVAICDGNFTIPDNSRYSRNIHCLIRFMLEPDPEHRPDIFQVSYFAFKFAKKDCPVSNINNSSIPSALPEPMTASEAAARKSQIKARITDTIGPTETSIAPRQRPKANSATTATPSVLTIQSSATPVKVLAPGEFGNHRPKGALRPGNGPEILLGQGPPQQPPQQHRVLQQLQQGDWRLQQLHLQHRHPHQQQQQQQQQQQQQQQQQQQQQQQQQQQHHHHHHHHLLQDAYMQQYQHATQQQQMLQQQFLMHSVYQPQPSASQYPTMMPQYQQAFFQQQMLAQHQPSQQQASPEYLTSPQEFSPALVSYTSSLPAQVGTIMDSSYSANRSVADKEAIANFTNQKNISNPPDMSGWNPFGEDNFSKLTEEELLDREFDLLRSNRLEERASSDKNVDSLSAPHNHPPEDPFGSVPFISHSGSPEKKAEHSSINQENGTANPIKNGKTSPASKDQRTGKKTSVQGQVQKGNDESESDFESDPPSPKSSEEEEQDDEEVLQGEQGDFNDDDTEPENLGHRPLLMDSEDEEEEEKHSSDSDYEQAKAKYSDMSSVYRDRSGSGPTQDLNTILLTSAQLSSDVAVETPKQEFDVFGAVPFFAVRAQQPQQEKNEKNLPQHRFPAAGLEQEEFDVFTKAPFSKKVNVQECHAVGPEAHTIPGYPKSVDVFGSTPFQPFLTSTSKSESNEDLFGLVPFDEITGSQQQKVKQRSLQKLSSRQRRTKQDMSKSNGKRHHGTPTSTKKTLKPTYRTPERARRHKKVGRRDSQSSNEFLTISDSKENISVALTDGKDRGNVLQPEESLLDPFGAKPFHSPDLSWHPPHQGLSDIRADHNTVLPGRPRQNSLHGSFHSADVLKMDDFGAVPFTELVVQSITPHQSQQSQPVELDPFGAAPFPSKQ
ASSAY_METRIC: IC50

stdin: Could you share which IC50 value was measured for COc1nc(N[C@H]2CC[C@H](NS(=O)(=O)CC(C)C)CC2)nc2[nH]nc(N3CCOC[C@H]3C)c12 ?
stdout: ≥ 20 µM
